The measured values listed here are drawn from patent US20240366589A1.

# Tested on: absorption of sodium from the intestinal lumen
# ASSAY_INFO: Inhibition of intestinal sodium absorption: urinary sodium (uNa) 16 h after single oral dose in rats
# Format: in vivo, rat
# STATED_CONDITIONS: oral gavage, dose 10 mg/kg, 16 h post-dose
Mark T only when Urine Na % of control stays strictly below 80%. Values equal to the cut-off are F.

CN1Cc2c(Cl)cc(Cl)cc2C(c2cccc(S(=O)(=O)NCCOCCOCCOCCNC(=O)CCC(CCC(=O)NCCOCCOCCOCCNS(=O)(=O)c3cccc([C@@H]4CN(C)Cc5c(Cl)cc(Cl)cc54)c3)(CCC(=O)NCCOCCOCCOCCNS(=O)(=O)c3cccc([C@@H]4CN(C)Cc5c(Cl)cc(Cl)cc54)c3)NCc3ccc(-c4ccc(Cl)cc4)cc3)c2)C1 (stereo in doubt) [compound 114] = T
N=C(N)Nc1nc(-c2cccc(N3CCN(CCOCCOCCOCCNC(=O)NCCOCCOCCNC(=O)CN(CCN(CC(=O)O)CC(=O)NCCOCCOCCNC(=O)NCCOCCOCCOCCN4CCN(c5cccc(-c6nc(NC(=N)N)nc7ccc(Cl)cc67)c5)CC4)CC(=O)O)CC3)c2)c2cc(Cl)ccc2n1 [compound 41] = F
N=C(N)Nc1nc(-c2ccc(OCCOCCOCCOCCN)cc2)c2cc(Cl)ccc2n1 [compound 37] = T
CCC(=O)NC(CCC(=O)NCCOCCOCCOCCNS(=O)(=O)c1cccc([C@@H]2CN(C)Cc3c(Cl)cc(Cl)cc32)c1)(CCC(=O)NCCOCCOCCOCCNS(=O)(=O)c1cccc([C@@H]2CN(C)Cc3c(Cl)cc(Cl)cc32)c1)CCC(=O)NCCOCCOCCOCCNS(=O)(=O)c1cccc([C@@H]2CN(C)Cc3c(Cl)cc(Cl)cc32)c1 [compound 89] = T
O=C(CCOCCOCCOCCOCCOCCC(=O)NCCOCCOCCOCCNS(=O)(=O)c1ccc(OC2c3ccccc3CC2N2CCCCC2)cc1)NCCOCCOCCOCCNS(=O)(=O)c1ccc(OC2c3ccccc3CC2N2CCCCC2)cc1 (stereo not shown) [compound 53] = F
NCCOCCOCCNS(=O)(=O)c1ccc(O[C@H]2c3ccccc3C[C@@H]2N2CCCCC2)cc1 [compound 60] = T
